Let's look at some compounds and their measured pIC50.
# Tested on: 429239-143-T-J1-PDC complex spheroid viability
# experimental.protocol: Anticancer human tumor 429239-143-T-J1-PDC patient-derived small cell lung carcinoma cell line growth inhibition [POLQ]
# applied.conditions: curve of first compound; second compound 0.0316 µM
// field semantics: pIC50 = negative decimal log of concentration (mol/L)

Record excerpt, results attached:
The compound CC1COCCN1c1cc(-c2ccnn2C)c2ccnc(-c3ccn[nH]3)c2n1 (stereo unspecified) + Cc1cccc(N(C)C(=O)C2C(O)CCN2c2nc(C)cc(C(F)(F)F)c2C#N)c1 , tested on 429239-143-T-J1-PDC complex spheroid viability, showed pIC50 of 6.87

The compound COc1cc(C2c3cc4c(cc3C(OC3OC5COC(C)OC5C(O)C3O)C3COC(=O)C23)OCO4)cc(OC)c1O (stereo unspecified) + Cc1cccc(N(C)C(=O)C2C(O)CCN2c2nc(C)cc(C(F)(F)F)c2C#N)c1 , tested on 429239-143-T-J1-PDC complex spheroid viability, showed pIC50 of 6.42

The compound CCc1cc2c(N3CCc4c(cc(Cn5ccnc5)cc4-c4cn(C)nc4C(F)(F)F)C3=O)ccnc2c(OC)n1 + COC1C(OC(N)=O)C(O)C(Oc2ccc3c(O)c(NC(=O)c4ccc(O)c(CC=C(C)C)c4)c(=O)oc3c2C)OC1(C)C , tested on 429239-143-T-J1-PDC complex spheroid viability, showed pIC50 of 5.56

The compound Cn1ncnc1[C@H]1c2n[nH]c(=O)c3cc(F)cc(c23)N[C@@H]1c1ccc(F)cc1 + COC1C(OC(N)=O)C(O)C(Oc2ccc3c(O)c(NC(=O)c4ccc(O)c(CC=C(C)C)c4)c(=O)oc3c2C)OC1(C)C , tested on 429239-143-T-J1-PDC complex spheroid viability, showed pIC50 of 7.61

The compound COc1ccc([C@@H](O)c2cc(-c3ncnc4cc(N5CCOCC5)ccc34)c(F)cc2Cl)nn1 + Cc1cccc(N(C)C(=O)C2C(O)CCN2c2nc(C)cc(C(F)(F)F)c2C#N)c1 , tested on 429239-143-T-J1-PDC complex spheroid viability, showed pIC50 of 5.49

More entries:
The compound Nc1ccn(C2OC(CO)C(O)C2(F)F)c(=O)n1 (stereo unspecified) + Nc1ccc(C#CCN(C(=O)Cc2ncc(C(F)(F)F)cc2C(F)(F)F)c2ccc(F)cc2)nn1 , tested on 429239-143-T-J1-PDC complex spheroid viability, showed pIC50 of 7.31

The compound Cn1ncnc1[C@H]1c2n[nH]c(=O)c3cc(F)cc(c23)N[C@@H]1c1ccc(F)cc1 + Cc1cccc(N(C)C(=O)C2C(O)CCN2c2nc(C)cc(C(F)(F)F)c2C#N)c1 , tested on 429239-143-T-J1-PDC complex spheroid viability, showed pIC50 of 7.70

The compound CNCc1ccc(-c2[nH]c3cc(F)cc4c3c2CCNC4=O)cc1 + Cc1cccc(N(C)C(=O)C2C(O)CCN2c2nc(C)cc(C(F)(F)F)c2C#N)c1 , tested on 429239-143-T-J1-PDC complex spheroid viability, showed pIC50 of 5.51

The compound O=c1[nH]cc(F)c(=O)[nH]1 + COC1C(OC(N)=O)C(O)C(Oc2ccc3c(O)c(NC(=O)c4ccc(O)c(CC=C(C)C)c4)c(=O)oc3c2C)OC1(C)C , tested on 429239-143-T-J1-PDC complex spheroid viability, showed pIC50 of 5.02

----------
# Tested on: 429239-143-T-J1-PDC complex spheroid viability
# experimental.protocol: Anticancer human tumor 429239-143-T-J1-PDC cell line growth inhibition [POLQ];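 also: luminescence signal used as surrogate measure of viable cells; spheroids exposed to compounds for seven days before readout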;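 as to viability, T/C: 100% = DMSO vehicle control viability as luminescence relative to vehicle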
# applied.conditions: second compound 3.16 µM; first compound 10 µM; stronger effect = lower value
measured.metric: viability, T/C (%)
Respond numerically; units are % and should not be typed.

Record excerpt, results attached:
get_value(item= O=c1[nH]cc(F)c(=O)[nH]1 + Nc1ccc(C#CCN(C(=O)Cc2ncc(C(F)(F)F)cc2C(F)(F)F)c2ccc(F)cc2)nn1 , readout=viability, T/C) returns 32.1

get_value(item= CNCc1ccc(-c2[nH]c3cc(F)cc4c3c2CCNC4=O)cc1 + COC1C(OC(N)=O)C(O)C(Oc2ccc3c(O)c(NC(=O)c4ccc(O)c(CC=C(C)C)c4)c(=O)oc3c2C)OC1(C)C , readout=viability, T/C) returns 20

Note: attention shifts to another entry.
get_value(item= CC1COCCN1c1cc(C2(S(C)(=N)=O)CC2)nc(-c2ccnc3[nH]ccc23)n1 (stereo not drawn) + COC1C(OC(N)=O)C(O)C(Oc2ccc3c(O)c(NC(=O)c4ccc(O)c(CC=C(C)C)c4)c(=O)oc3c2C)OC1(C)C , readout=viability, T/C) returns 18.8

----------
# Test system: 429239-143-T-J1-PDC complex spheroid viability
# experimental.protocol: Anticancer human tumor 429239-143-T-J1-PDC cell line growth inhibition [POLQ]; active = viability on the fitted dose curve at most 10% of control; inactive = the rest;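 also: luminescence signal used as surrogate measure of viable cells; spheroids exposed to compounds for seven days before readout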
# applied.conditions: second compound 0.316 µM; first compound 0.00316 µM
Returns: one label drawn from active, inactive

Would you please look over these solved cases?
Task item: Which outcome did this test record for the compound CCc1c2c(nc3ccc(O)cc13)-c1cc3c(c(=O)n1C2)COC(=O)[C@]3(O)CC + COC1C(OC(N)=O)C(O)C(Oc2ccc3c(O)c(NC(=O)c4ccc(O)c(CC=C(C)C)c4)c(=O)oc3c2C)OC1(C)C ?
Reply: inactive

Task item: Which outcome did this test record for the compound CCc1c2c(nc3ccc(O)cc13)-c1cc3c(c(=O)n1C2)COC(=O)[C@]3(O)CC + Cc1cccc(N(C)C(=O)C2C(O)CCN2c2nc(C)cc(C(F)(F)F)c2C#N)c1 ?
Reply: inactive

Task item: Which outcome did this test record for the compound C=CCn1c(=O)c2cnc(Nc3ccc(N4CCN(C)CC4)cc3)nc2n1-c1cccc(C(C)(C)O)n1 + COC1C(OC(N)=O)C(O)C(Oc2ccc3c(O)c(NC(=O)c4ccc(O)c(CC=C(C)C)c4)c(=O)oc3c2C)OC1(C)C ?
Reply: inactive

Task item: Which outcome did this test record for the compound C=CCn1c(=O)c2cnc(Nc3ccc(N4CCN(C)CC4)cc3)nc2n1-c1cccc(C(C)(C)O)n1 + Nc1ccc(C#CCN(C(=O)Cc2ncc(C(F)(F)F)cc2C(F)(F)F)c2ccc(F)cc2)nn1 ?
Reply: inactive

Task item: Which outcome did this test record for the compound Cn1ncnc1[C@H]1c2n[nH]c(=O)c3cc(F)cc(c23)N[C@@H]1c1ccc(F)cc1 + COC1C(OC(N)=O)C(O)C(Oc2ccc3c(O)c(NC(=O)c4ccc(O)c(CC=C(C)C)c4)c(=O)oc3c2C)OC1(C)C ?
Reply: inactive

Task item: Which outcome did this test record for the compound CCc1c2c(nc3ccc(O)cc13)-c1cc3c(c(=O)n1C2)COC(=O)[C@]3(O)CC + Nc1ccc(C#CCN(C(=O)Cc2ncc(C(F)(F)F)cc2C(F)(F)F)c2ccc(F)cc2)nn1 ?
Reply: active

More entries:
Task item: Which outcome did this test record for the compound COc1cccc(OCCCN)c1-c1cc(Nc2cnc(C#N)cn2)n[nH]1 + Nc1ccc(C#CCN(C(=O)Cc2ncc(C(F)(F)F)cc2C(F)(F)F)c2ccc(F)cc2)nn1 ?
Reply: inactive

Task item: Which outcome did this test record for the compound Cn1ncnc1[C@H]1c2n[nH]c(=O)c3cc(F)cc(c23)N[C@@H]1c1ccc(F)cc1 + Cc1cccc(N(C)C(=O)C2C(O)CCN2c2nc(C)cc(C(F)(F)F)c2C#N)c1 ?
Reply: inactive

Task item: Which outcome did this test record for the compound Cn1ncnc1[C@H]1c2n[nH]c(=O)c3cc(F)cc(c23)N[C@@H]1c1ccc(F)cc1 + Nc1ccc(C#CCN(C(=O)Cc2ncc(C(F)(F)F)cc2C(F)(F)F)c2ccc(F)cc2)nn1 ?
Reply: inactive

Task item: Which outcome did this test record for the compound COc1cccc(OCCCN)c1-c1cc(Nc2cnc(C#N)cn2)n[nH]1 + COC1C(OC(N)=O)C(O)C(Oc2ccc3c(O)c(NC(=O)c4ccc(O)c(CC=C(C)C)c4)c(=O)oc3c2C)OC1(C)C ?
Reply: inactive

Task item: Which outcome did this test record for the compound COc1cccc(OCCCN)c1-c1cc(Nc2cnc(C#N)cn2)n[nH]1 + Cc1cccc(N(C)C(=O)C2C(O)CCN2c2nc(C)cc(C(F)(F)F)c2C#N)c1 ?
Reply: inactive

----------
Let's look at some compounds and their measured viability, T/C.
# Tested on: 429239-143-T-J1-PDC complex spheroid viability
# experimental.protocol: Anticancer human tumor 429239-143-T-J1-PDC cell line growth inhibition [POLQ];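 also: luminescence signal used as surrogate measure of viable cells; spheroids exposed to compounds for seven days before readout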;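 as to viability, T/C: 100% = DMSO vehicle control viability as luminescence relative to vehicle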
# applied.conditions: second compound 0.0316 µM; first compound 0.316 µM; stronger effect = lower value
Respond numerically; units are % and should not be typed.

Record excerpt, results attached:
get_value(item= CC1COCCN1c1cc(-c2ccnn2C)c2ccnc(-c3ccn[nH]3)c2n1 (stereo unspecified) + Cc1cccc(N(C)C(=O)C2C(O)CCN2c2nc(C)cc(C(F)(F)F)c2C#N)c1 , readout=viability, T/C) returns 34.8

get_value(item= O=C(c1cc(Cc2n[nH]c(=O)c3ccccc23)ccc1F)N1CCN(C(=O)C2CC2)CC1 + Cc1cccc(N(C)C(=O)C2C(O)CCN2c2nc(C)cc(C(F)(F)F)c2C#N)c1 , readout=viability, T/C) returns 82.9

get_value(item= C#Cc1c(F)ccc2cc(O)cc(-c3ncc4c(N5CC6CCC(C5)N6)nc(OCC56CCCN5CC(F)C6)nc4c3F)c12 (stereo unspecified) + COC1C(OC(N)=O)C(O)C(Oc2ccc3c(O)c(NC(=O)c4ccc(O)c(CC=C(C)C)c4)c(=O)oc3c2C)OC1(C)C , readout=viability, T/C) returns 113

get_value(item= COc1ccc([C@@H](O)c2cc(-c3ncnc4cc(N5CCOCC5)ccc34)c(F)cc2Cl)nn1 + COC1C(OC(N)=O)C(O)C(Oc2ccc3c(O)c(NC(=O)c4ccc(O)c(CC=C(C)C)c4)c(=O)oc3c2C)OC1(C)C , readout=viability, T/C) returns 94.5

get_value(item= COc1cc2cc(C(=O)CCC(=O)O)sc2cc1OC + Cc1cccc(N(C)C(=O)C2C(O)CCN2c2nc(C)cc(C(F)(F)F)c2C#N)c1 , readout=viability, T/C) returns 97.8

Note: attention shifts to another entry.
get_value(item= O=C(Nc1ccc(O)c(NS(=O)(=O)c2ccc(F)cc2)c1)c1ccc(-c2ccccc2)cc1 + Nc1ccc(C#CCN(C(=O)Cc2ncc(C(F)(F)F)cc2C(F)(F)F)c2ccc(F)cc2)nn1 , readout=viability, T/C) returns 89.5
